method: Pharmacokinetic study in Beagle dogs
Format: in vivo
experimental.parameters: dog, plasma, iv, I.V. (1 mg/kg)
Lab note: anything with half-life below 2 h is marked class 1; values at 2 h or higher are marked class 0.

> print(dat)
                                     smiles  class.name
1  [2H]C([2H])([2H])CC(=O)c1cnc(NC(=O)C2CC2)cc1Nc1cccc(-c2ncn(C([2H])([2H])[2H])n2)c1OC     class 0
2  [2H]C([2H])([2H])CC(=O)c1cnc(Nc2cccc(C#N)n2)cc1Nc1nccc(-c2ncn(C([2H])([2H])[2H])n2)c1OC     class 1

Query :: Given the entry `[2H]C([2H])([2H])CC(=O)c1cnc(Nc2ccc(C(C)(C)O)c(F)n2)cc1Nc1cccc(-c2ncn(C([2H])([2H])[2H])n2)c1OC` , would its reported half-life be below 2 h?
Result :: class 1

Query :: Given the entry `[2H]C([2H])([2H])CC(=O)c1cnc(Nc2cccc(C#N)n2)cc1Nc1cccc(-c2ncn(C([2H])([2H])[2H])n2)c1OC` , would its reported half-life be below 2 h?
Result :: class 0

Query :: Given the entry `[2H]C([2H])([2H])CC(=O)c1cnc(Nc2ccc(C(C)(C)O)c(F)n2)cc1Nc1nccc(-c2ncn(C([2H])([2H])[2H])n2)c1OC` , would its reported half-life be below 2 h?
Result :: class 0
